Test system: A549
experiment: Antiproliferative activity against human A549 cells after 72 hrs by MTT assay
Format: functional, cell-based
condition_context: A549, 72 h
Consider the following compounds; for each one, report its IC50.
Answers are plain numbers, in µM.

Guide cases for IC50, answers given:
INSERT INTO measurements (compound, system, reported) VALUES
  ('CC(=O)Oc1cc2c(c(C)c1OC(C)=O)C(=O)C=C1[C@@]2(C)CC[C@@]2(C)[C@@H]3C[C@](C)(C=O)CC[C@]3(C)CC[C@]12C', 'A549', 2.77),
  ('CC1=C(O)C(=O)C=C2C1=CC=C1[C@@]2(C)CC[C@@]2(C)[C@@H]3C[C@](C)(NC(=O)OCC(C)(C)CO)CC[C@]3(C)CC[C@]12C', 'A549', 1.58);

Hey, can you go through the list below and give me IC50 for every item?
1. CC(=O)Oc1cc2c(c(C)c1OC(C)=O)C(=O)C=C1[C@@]2(C)CC[C@@]2(C)[C@@H]3C[C@](C)(CO)CC[C@]3(C)CC[C@]12C
2. CC1=C(O)C(=O)C=C2C1=CC=C1[C@@]2(C)CC[C@@]2(C)[C@@H]3C[C@](C)(N=C=O)CC[C@]3(C)CC[C@]12C
3. CC(=O)Oc1cc2c(c(C)c1OC(C)=O)C(=O)C=C1[C@@]2(C)CC[C@@]2(C)[C@@H]3C[C@](C)(C(N)=O)CC[C@]3(C)CC[C@]12C
4. COC(=O)N[C@]1(C)CC[C@]2(C)CC[C@]3(C)C4=CC=C5C(=CC(=O)C(O)=C5C)[C@]4(C)CC[C@@]3(C)[C@@H]2C1
5. CC(=O)Oc1cc2c(c(C)c1OC(C)=O)CC=C1[C@@]2(C)CC[C@@]2(C)[C@@H]3C[C@](C)(C(=O)O)CC[C@]3(C)CC[C@]12C
6. CC1=C(O)C(=O)C=C2C1=CC=C1[C@@]2(C)CC[C@@]2(C)[C@@H]3C[C@](C)(NC(=O)OCC(C)C)CC[C@]3(C)CC[C@]12C

Result:
1.87
2.47
1.27
1.74
2.21
2.23

Hey, can you go through the list below and give me IC50 for every item?
1. CCOC(=O)N[C@]1(C)CC[C@]2(C)CC[C@]3(C)C4=CC=C5C(=CC(=O)C(O)=C5C)[C@]4(C)CC[C@@]3(C)[C@@H]2C1
2. COC(=O)N[C@]1(C)CC[C@]2(C)CC[C@]3(C)C4=CC(=O)c5c(cc(OC(C)=O)c(OC(C)=O)c5C)[C@]4(C)CC[C@@]3(C)[C@@H]2C1

Result:
1.93
0.88

Hey, can you go through the list below and give me IC50 for every item?
1. Cc1c(O)c(O)cc2c1CC=C1[C@@]2(C)CC[C@@]2(C)[C@@H]3C[C@](C)(C(=O)O)CC[C@]3(C)CC[C@]12C [DIHYDROCELASTROL]
2. CC(=O)Oc1cc2c(c(C)c1OC(C)=O)CC=C1[C@@]2(C)CC[C@@]2(C)[C@@H]3C[C@](C)(N=C=O)CC[C@]3(C)CC[C@]12C
3. CCCOC(=O)N[C@]1(C)CC[C@]2(C)CC[C@]3(C)C4=CC=C5C(=CC(=O)C(O)=C5C)[C@]4(C)CC[C@@]3(C)[C@@H]2C1

Result:
3.15
2.89
1

Hey, can you go through the list below and give me IC50 for every item?
1. CC1=C(O)C(=O)C=C2C1=CC=C1[C@@]2(C)CC[C@@]2(C)[C@@H]3C[C@](C)(C(=O)O)CC[C@]3(C)CC[C@]12C [CELASTROL]
2. COC(=O)N[C@]1(C)CC[C@]2(C)CC[C@]3(C)C4=CC(=O)c5c(cc(O)c(O)c5C)[C@]4(C)CC[C@@]3(C)[C@@H]2C1
3. CCCCCOC(=O)N[C@]1(C)CC[C@]2(C)CC[C@]3(C)C4=CC=C5C(=CC(=O)C(O)=C5C)[C@]4(C)CC[C@@]3(C)[C@@H]2C1

Result:
[1.56, 6.53, 1.05]
